- Experimental details: Absorbance and fluorescence properties
- Format: physicochemical
Parameter: Absorbance λmax (nm)
The answer is to be given in nm; state only the numeric part.

{"columns": ["Smiles repr", "Absorbance λmax / nm"],
 "data": [
  ["Cc1ccc2nc(-c3ccc4nc(-c5ccc(NC(=O)c6ccc(C(C)(C)C)cc6)cc5)sc4c3)sc2c1S(=O)(=O)O", 356],
  ["Cc1ccc2nc(-c3ccc4nc(-c5ccc(NC(=O)c6ccc7nc(-c8ccc(N)cc8)sc7c6)cc5)sc4c3)sc2c1S(=O)(=O)O", 361],
  ["Cc1ccc2nc(-c3ccc4nc(-c5ccc(NC(=O)c6ccc(C(F)(F)F)cc6)cc5)sc4c3)sc2c1S(=O)(=O)O", 356],
  ["Cc1ccc2nc(-c3ccc4nc(-c5ccc(NC(=O)c6cccc(Cl)c6)cc5)sc4c3)sc2c1S(=O)(=O)O", 356],
  ["Cc1ccc2nc(-c3ccc4nc(-c5ccc(NC(=O)c6ccc(N)cc6)cc5)sc4c3)sc2c1S(=O)(=O)O", 360]
]}

Incoming: State, in one line, measured Absorbance λmax of `Cc1ccc2nc(-c3ccc4nc(-c5ccc(NC(=O)c6cc(C(F)(F)F)ccc6F)cc5)sc4c3)sc2c1S(=O)(=O)O`
Outgoing: 355

Incoming: Dear colleague, please send me the reported Absorbance λmax for `Cc1ccc2nc(-c3ccc4nc(-c5ccc(NC(=O)c6ccc(Br)cc6)cc5)sc4c3)sc2c1S(=O)(=O)O` when you can.
Outgoing: 356

---

- Measured target: HCV NS3 helicase NS3h_1b(con1) (Hepatitis C virus genotype 1b)
- Construct: truncated C-terminally His-tagged NS3 proteins lacking the N-terminal protease, called NS3h; His-tag (C); made in house
- Experimental details: MBHA screen of NCI mechanistic set library at 20 μM (percent inhibition, compound interference)
- Format: biochemical
- Experimental context: compounds at 20 μM, MBHA with DNA substrate; calculated from Equation 1
Listing: Inh. (%) (Inhibition) of selected compounds
Reply with just the number (in %).

{"columns": ["Compound", "Measurement unit", "Inh. (%) (Inhibition)"],
 "data": [
  ["COc1ccc2cc1Oc1ccc(cc1)CC1c3c(cc(OC)c4c3Oc3cc5c(cc3O4)CCNC5C2)CCN1C (stereo not drawn) [Compound 181486]", "%", 38.3],
  ["CCN(CC)CCOc1ccccc1/C=C/c1noc2ccccc12.Cl [Compound 601101]", "%", "−7.8"],
  ["COc1cc(NS(C)(=O)=O)ccc1Nc1c2ccccc2nc2ccccc12 [Compound 249992]", "%", 3.0],
  ["COc1cccc2c1C(=O)c1c(O)c3c(c(O)c1C2=O)C[C@@](O)(C(C)=O)C[C@@H]3OC1CC(N(C)C)C(O)C(C)O1.Cl (stereo partly drawn) [Compound 258812]", "%", 46.4],
  ["COC1CC(OC2CCC3(C=O)C4CCC5(C)C(C6=CC(=O)OC6)CCC5(O)C4CCC3(O)C2)OC(C)C1OC1OC(CO)C(O)C(O)C1O (stereo not drawn) [Compound 4320]", "%", "−12.6"],
  ["Cc1ccc(NC(=O)c2cc3ccccc3c(N=Nc3ccccc3O)c2O)c(C)c1 [Compound 374898]", "%", 3.2]
]}

Incoming: Complete the entry with Inh. (%) (Inhibition) for CCOC(=O)/N=C(\N)SCc1ccccc1.Cl [Compound 622684]
Outgoing: −1.3

Incoming: Look up Inh. (%) (Inhibition) of COc1ccc2nc(C)cc(NCCCCCCCCCNc3cc(C)nc4ccc(OC)cc34)c2c1 [Compound 10010] and report it.
Outgoing: 56.7

Incoming: Specify reported Inh. (%) (Inhibition) for the compound shown: CC1=C2C(=CC(C)(C)[C@@H]2O)C(=O)[C@](C)(O)C12CC2 [Compound 400978]
Outgoing: 17.9

Incoming: Output measured Inh. (%) (Inhibition) for this item: COc1cc([C@@H]2c3cc4c(c(O)c3C[C@H]3COC(=O)[C@@H]32)OCO4)cc(OC)c1OC [Compound 24819]
Outgoing: −0.3

Incoming: Identify measured Inh. (%) (Inhibition) corresponding to CCCCCCC1CC(=O)C1(Cl)Cl (stereo not drawn) [Compound 666526]
Outgoing: −1.3

Incoming: Look up Inh. (%) (Inhibition) of CN(C)[C@@H]1C(=O)C(C(N)=O)=C(O)[C@@]2(O)C(=O)C3=C(O)c4c(O)cccc4C[C@H]3C[C@@H]12 [Compound 51812] and report it.
Outgoing: −8.1

Incoming: Given the compound COc1ccc2c(c1)-c1nn(CCCN(C)C)c3ccc([N+](=O)[O-])c(c13)N2 [Compound 627168] , write its reported Inh. (%) (Inhibition).
Outgoing: 64.3

---

- Measured target: HCV NS3 helicase NS3h_1b(con1) (Hepatitis C virus genotype 1b)
- Construct: truncated C-terminally His-tagged NS3 proteins lacking the N-terminal protease, called NS3h; His-tag (C); made in house
- Experimental details: biochemical
- Assay type: biochemical, hepatitis C virus genotype 1b(con1)
- Experimental context: MBHA, DNA unwinding; mean ± SD of three titrations; read-out: Helicase IC50
Labelling: IC50 reported below 10 µM becomes Condition met; at or above becomes Condition not met.

# count of solved cases: 6
{"columns": ["Molecule", "Qualitative label"],
 "data": [
  ["Cc1ccc2nc(-c3ccc4nc(-c5ccc(NC(=O)c6cccc(C(F)(F)F)c6)cc5)sc4c3)sc2c1S(=O)(=O)O [Compound 20]", "Condition not met"],
  ["Cc1ccc2nc(-c3ccc4nc(-c5ccc(NC(=O)c6ccc(N(C)C)cc6)cc5)sc4c3)sc2c1S(=O)(=O)O [Compound 14]", "Condition not met"],
  ["CCOc1ccc2c(NNC(=O)c3cnccn3)c3c(nc2c1)CCCC3 [Compound 1, reference compound]", "Condition not met"],
  ["Cc1ccc2nc(-c3ccc4nc(-c5ccc(NC(=O)c6cc(C(F)(F)F)cc(C(F)(F)F)c6)cc5)sc4c3)sc2c1S(=O)(=O)O [Compound 24]", "Condition not met"],
  ["Cc1ccc2nc(-c3ccc4nc(-c5ccc(N(C)C(=O)c6ccc7ccccc7c6)cc5)sc4c3)sc2c1S(=O)(=O)O [Compound 34]", "Condition not met"],
  ["Cc1ccc2nc(-c3ccc4nc(-c5ccc(NC(=O)c6ccc7ccccc7c6)cc5)sc4c3)sc2c1S(=O)(=O)O [Compound 33]", "Condition met"]
]}

Turning to the following molecule.
Incoming: Given Cc1ccc2nc(-c3ccc4nc(-c5ccc(NC(=O)c6ccc7nc(-c8ccc(N)cc8)sc7c6)cc5)sc4c3)sc2c1S(=O)(=O)O [Compound 35] , is recorded IC50 strictly lower than 10 µM?
Outgoing: Condition met

---

- Measured target: HCV NS3 helicase NS3h_1b(con1) (Hepatitis C virus genotype 1b, UniProt Q9WMX2)
- Construct: truncated C-terminally His-tagged NS3 proteins lacking the N-terminal protease, called NS3h; His-tag (C); made in house
- Sequence (Q9WMX2 1192-1657): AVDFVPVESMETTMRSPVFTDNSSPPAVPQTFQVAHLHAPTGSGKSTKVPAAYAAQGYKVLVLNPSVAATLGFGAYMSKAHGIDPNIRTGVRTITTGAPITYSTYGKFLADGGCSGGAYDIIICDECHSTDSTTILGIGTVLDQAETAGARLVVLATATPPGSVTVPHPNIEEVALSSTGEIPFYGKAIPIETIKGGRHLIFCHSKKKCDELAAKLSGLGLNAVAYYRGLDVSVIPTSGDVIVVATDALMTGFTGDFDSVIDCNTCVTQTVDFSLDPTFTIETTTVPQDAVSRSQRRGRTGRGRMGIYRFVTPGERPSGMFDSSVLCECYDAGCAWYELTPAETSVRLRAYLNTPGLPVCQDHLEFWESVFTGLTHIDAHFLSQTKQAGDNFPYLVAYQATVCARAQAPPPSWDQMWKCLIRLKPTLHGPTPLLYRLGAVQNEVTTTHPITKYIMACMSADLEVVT
- Experimental details: MBHA screen of NCI mechanistic set library at 20 μM (percent inhibition, compound interference)
- Type: biochemical
- Experimental context: compounds at 20 μM, MBHA with DNA substrate; calculated from Equation 1
Parameter: Inh. (%) (Inhibition)
Numeric answer only, unit % assumed.

Worked cases, answers included:
{"columns": ["Compound", "Measurement unit", "Inh. (%) (Inhibition)"],
 "data": [
  ["NC(=O)c1csc(C2OC(CO)C(O)C2O)n1 (stereo not drawn)", "%", 1.1],
  ["COc1ccc(C2C(C)C(=O)C(C)C(c3ccc(OC)cc3)N2N=O)cc1 (stereo not drawn)", "%", "−18.3"],
  ["O=C(c1nc2ccc(Cl)cc2[nH]c1=O)C(O)c1ccc2c(c1)OCO2 (stereo not drawn)", "%", "−11.2"],
  ["CN(C)/N=N/c1nc[nH]c1C(N)=O", "%", 17.5],
  ["CC[C@@]12CCCN3CC[C@]4(c5cccc(OC)c5N(C(C)=O)[C@@H]4CC1)[C@H]32", "%", "−2.8"]
]}

Incoming: Give Inh. (%) (Inhibition) for the following compound: O=C(CC1(O)C(=O)Nc2c(Cl)cc(Cl)cc21)c1ccc([N+](=O)[O-])cc1 (stereo not drawn)
Outgoing: 5.9

Incoming: In one line, give reported Inh. (%) (Inhibition) of the entry `CCCCCCCC/C=C\CCCCCCCC(=O)O` .
Outgoing: 12.6

Incoming: Output measured Inh. (%) (Inhibition) for this item: Clc1ccc(C(c2ccccc2Cl)C(Cl)Cl)cc1 (stereo not drawn)
Outgoing: 0.3

Incoming: Entry `CC1=Nc2ccccc2/C1=C\c1c(C)[nH]c2ccccc12` needs its Inh. (%) (Inhibition) filled in; supply it.
Outgoing: −1.2

---

Parameter: IC50. Scope: all listed entries.
- Measured target: HCV NS3 helicase NS3h_1b(con1) (Hepatitis C virus genotype 1b)
- Construct: truncated C-terminally His-tagged NS3 proteins lacking the N-terminal protease, called NS3h; His-tag (C); made in house
- Experimental details: biochemical
- Format: biochemical, hepatitis C virus genotype 1b(con1)
- Experimental context: genotype 1b (con1); read-out: Target Potency MBHA (IC50 avg., μM) 1b (con1)
Entry rule: numbers only, all in µM.

Solved entries:
{"columns": ["Compound", "Measurement unit", "IC50"],
 "data": [
  ["Cc1ccc2nc(-c3ccc4nc(NC(=O)c5ccc6ncoc6c5)sc4c3)sc2c1", "µM", 60],
  ["Cc1ccc2nc(-c3ccc4nc(-c5ccc(NC(=O)c6ccc(N(C)C)cc6)cc5)sc4c3)sc2c1S(=O)(=O)O [Compound 14]", "µM", 11]
]}

Incoming: State its IC50 for this compound: Cc1ccc2nc(-c3ccc(NC(=O)c4ccc(NC(=O)Nc5ccccc5)cc4)cc3)sc2c1S(=O)(=O)O.N [Compound 45]
Outgoing: 44

Incoming: Respond only with IC50 recorded for COC(=O)c1ccc(C(=O)Nc2ccc(-c3nc4ccc(-c5nc6ccc(C)c(S(=O)(=O)O)c6s5)cc4s3)cc2)cc1 [Compound 9]
Outgoing: 9.7

Incoming: Give IC50 for the following compound: Cc1ccc2nc(-c3ccc4nc(-c5ccc(NC(=O)c6cccc(Cl)c6)cc5)sc4c3)sc2c1S(=O)(=O)O [Compound 17]
Outgoing: 2.6

Incoming: Return IC50 (reported value) for this compound: Cc1ccc2nc(-c3ccc4nc(-c5ccc(NC(=O)c6ccc(C(F)(F)F)cc6)cc5)sc4c3)sc2c1S(=O)(=O)O [Compound 12]
Outgoing: 1.8

Incoming: Please indicate IC50 recorded for Cc1ccc2nc(-c3ccc(NC(=O)c4ccc(NC(=O)OCC5c6ccccc6-c6ccccc65)cc4)cc3)sc2c1S(=O)(=O)O.N [Compound 42]
Outgoing: 12
